Recorded values, source the supplement of paper PMC13380429.

# maps each entry to its cell viability
Tested on: Vero E6
Protocol Text: cell viability relative to DMSO; higher = less toxic
Assay Conditions: 72 h; 10 nM
Value expressed in %; do not type the unit.

Below: 4 compounds and their reported cell viability.
[
  {
    "Compound": "CC(C)(C)C(=O)Oc1ccc(S(=O)(=O)Nc2ccccc2C(=O)NCC(=O)O)cc1",
    "Target Or System": "Vero E6",
    "Value Unit": "%",
    "Numeric Value": 96.5
  },
  {
    "Compound": "N[C@H](Cc1cc(I)c(Oc2ccc(O)c(I)c2)c(I)c1)C(=O)O [liothyronine-(isomer)]",
    "Target Or System": "Vero E6",
    "Value Unit": "%",
    "Numeric Value": 92.9
  },
  {
    "Compound": "C1CCC2(CC1)CCNCC2 [4,4-pentamethylenepiperidine]",
    "Target Or System": "Vero E6",
    "Value Unit": "%",
    "Numeric Value": 101
  },
  {
    "Compound": "Cc1cc2cc3c(C)cc(=O)oc3c(C)c2o1",
    "Target Or System": "Vero E6",
    "Value Unit": "%",
    "Numeric Value": 96
  }
]

query: Requested read-out: cell viability. Entry: Fc1ccc([C@@H]2CCNC[C@H]2COc2ccc3c(c2)OCO3)cc1
result: 104

query: Requested read-out: cell viability. Entry: N=C(Nc1ccccc1)c1cccs1
result: 101

query: Requested read-out: cell viability. Entry: C#C[C@]1(O)C=C[C@H]2[C@@H]3CCC4=CC(=O)CC[C@@H]4[C@H]3CC[C@@]21CC
result: 96.8

query: Requested read-out: cell viability. Entry: C[C@](N)(Cc1ccc(O)c(O)c1)C(=O)O
result: 102

query: Requested read-out: cell viability. Entry: CN1[C@@H]2CC[C@H]1C[C@@H](OC(c1ccccc1)c1ccccc1)C2 [benztropine-mesylate]
result: 104

query: Requested read-out: cell viability. Entry: Nc1cc(-c2ccncc2)c[nH]c1=O
result: 96.2
